Each recorded value in this set is attributed to PubChem BioAssay.

# composite z-score annotations
Tested on: Sonic hedgehog protein (Shh)
assay-comment: Sonic hedgehog microarray binding compounds – biochemical, small-molecule microarray, 635/667 nm fluorescence, primary screen (AID 1151);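 note: Shh protein binding to compounds spotted on small-molecule microarray slides; score combines spot fluorescence intensity with signal-to-noise across triplicate slides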
run-parameters: 635 nm fluorescence, higher = more signal
Answer as a number with no unit attached.

molecule	attribute-measured	result-number
CC[C@@H]1[C@@H]2C3C(=O)N(CC)C(=O)C3CC(=O)[C@@H]2[C@H](c2ccc(C)cc2)N1S(=O)(=O)c1ccc(C)cc1 (stereo partly drawn)	composite z-score	1.18
COCCCNC(=O)[C@@]1(Cc2ccccc2)COC(c2ccc(OCCCO)cc2)=N1	composite z-score	-0.795
COc1ccc(C(=O)Nc2ccc(CN3C(=O)[C@]4(O[C@H](CCn5cc([C@H](O)c6ccccc6)nn5)[C@@H]([Si](C)(C)c5ccc(OC)cc5)[C@@H]4C)c4ccccc43)cc2)cc1	composite z-score	0.666
C[C@H]1NC(=O)C([C@@H](C)OCc2ccccc2)NC(=O)[C@@]23C(=O)N[C@@H](Cc4ccccc4)C2[C@H](C)[C@@]2(C)O[C@H]2C3/C=C/CC/C=C/CNC1=O (stereo partly drawn)	composite z-score	0.778
C[N+](C)(C)CCCC[C@@H]1NC(=O)[C@@H]2C[C@H](C(=O)O)[C@H](c3cccc(OCCO)c3)N2C1=O	composite z-score	0.976

Q: Would you mind telling me what composite z-score value was observed for `COC(=O)C(CC#Cc1ccc2c(c1)[C@]1(C(=O)N2)[C@H](C(=O)N2CCc3cc(OC)c(OC)cc3C2)[C@H]2C(=O)O[C@H](c3ccccc3)[C@H](c3ccccc3)N2[C@@H]1c1ccc(O)cc1)C(=O)OC` ?
Ans: 1.87

Q: Would you mind telling me what composite z-score value was observed for `COC(=O)[C@@]1(Cc2ccccc2)[C@H]2c3cc(C(=O)N(C)C)n(Cc4ccccn4)c3C[C@H]2CN1C(=O)c1ccccc1` ?
Ans: -0.709

Q: Would you mind telling me what composite z-score value was observed for `O=C1N(CCS(=O)(=O)c2ccccc2)Cc2ccccc2C[C@@]12COC(c1ccc(OCCCO)cc1)=N2` ?
Ans: 2.03

Q: Would you mind telling me what composite z-score value was observed for `CN(C)CCCNC(=O)[C@@]1(Cc2ccccc2I)c2ccccc2C(=O)N(Cc2ccccc2Cl)[C@H]1c1ccc(CO)cc1` ?
Ans: -0.0692

Q: Would you mind telling me what composite z-score value was observed for `C[C@@H]1ON(c2ccccc2)[C@H](c2ccccc2)[C@H]1C(=O)N1C(=O)OC[C@H]1Cc1ccccc1` ?
Ans: 0.637
